Assay: Compound was evaluated for IC50 ratio between human plasmin and thrombin
Selectivity overview

compound | Selectivity
CNC(Cc1ccccc1)C(=O)N[C@@H]1CCCC[C@H]1C(=O)N[C@@H](C=O)CCCN=C(N)N (some centres undefined) | 38
CNC(Cc1ccc2ccccc2c1)C(=O)N[C@H]1CCCC[C@H]1C(=O)N[C@@H](C=O)CCCN=C(N)N (some centres undefined) | 4540
CN[C@H](Cc1ccccc1)C(=O)N1CCC[C@H]1C(=O)N[C@H](C=O)CCCNC(=N)N | 413
CN(CCc1ccccc1)C(=O)[C@@H]1CCCC[C@@H]1C(=O)N[C@@H](C=O)CCCN=C(N)N | 67

* * *

Molecular target: UniProtKB P00734
Assay: Compound was evaluated for percent inhibition of thrombin using the synthetic substrate chromozym TH at 100 uM
Short version: inhibition at least 10% is t, less is f.

compound | target_entity | class_label
CN(CCc1ccccc1)C(=O)[C@H]1CCCC[C@@H]1C(=O)N[C@@H](C=O)CCCN=C(N)N | UniProtKB P00734 | t
CNC(Cc1ccccc1)C(=O)N[C@H]1CCCC[C@H]1C(=O)N[C@@H](C=O)CCCN=C(N)N (stereo partly specified) | UniProtKB P00734 | f
CNC(Cc1ccccc1)C(=O)N[C@@H]1CCCC[C@H]1C(=O)N[C@@H](C=O)CCCN=C(N)N (stereo partly specified) | UniProtKB P00734 | t
CN(Cc1ccccc1)C(=O)[C@@H]1CCCC[C@H]1C(=O)N[C@@H](C=O)CCCN=C(N)N | UniProtKB P00734 | f
CN(Cc1ccccc1)C(=O)[C@H]1CCCC[C@@H]1C(=O)N[C@@H](C=O)CCCN=C(N)N | UniProtKB P00734 | t
CN(CCc1ccccc1)C(=O)[C@@H]1CCCC[C@H]1C(=O)N[C@@H](C=O)CCCN=C(N)N | UniProtKB P00734 | t
CNC(Cc1ccccc1)C(=O)N[C@@H]1CCCC[C@@H]1C(=O)N[C@@H](C=O)CCCN=C(N)N (stereo partly specified) | UniProtKB P00734 | f
CN(Cc1ccccc1)C(=O)C1CCCCC1C(=O)N[C@@H](C=O)CCCN=C(N)N (stereo partly specified) | UniProtKB P00734 | t
CN(CCc1ccccc1)C(=O)[C@@H]1CCCC[C@@H]1C(=O)N[C@@H](C=O)CCCN=C(N)N | UniProtKB P00734 | t
CNC(Cc1ccccc1)C(=O)N[C@H]1CCCC[C@@H]1C(=O)N[C@@H](C=O)CCCN=C(N)N (stereo partly specified) | UniProtKB P00734 | t
CN(CCc1ccccc1)C(=O)C1CCCCC1C(=O)N[C@@H](C=O)CCCN=C(N)N (stereo partly specified) | UniProtKB P00734 | t

* * *

Target: Prothrombin (Homo sapiens)
pIC50: −log10 of the molar value.
assay_metric: pIC50

compound | measured
CNC(Cc1ccc2ccccc2c1)C(=O)N[C@H]1CCCC[C@H]1C(=O)N[C@@H](C=O)CCCN=C(N)N (stereo partly specified) | 7.66

Provenance of the data: ChEMBL document CHEMBL1130993
